Source of measurements: the kinase profiling compilation of Christmann-Franck et al. (2016)

targetOrTestSystem: LCK (human) (UniProt P06239)
Sequence (P06239 whole entry, looked up): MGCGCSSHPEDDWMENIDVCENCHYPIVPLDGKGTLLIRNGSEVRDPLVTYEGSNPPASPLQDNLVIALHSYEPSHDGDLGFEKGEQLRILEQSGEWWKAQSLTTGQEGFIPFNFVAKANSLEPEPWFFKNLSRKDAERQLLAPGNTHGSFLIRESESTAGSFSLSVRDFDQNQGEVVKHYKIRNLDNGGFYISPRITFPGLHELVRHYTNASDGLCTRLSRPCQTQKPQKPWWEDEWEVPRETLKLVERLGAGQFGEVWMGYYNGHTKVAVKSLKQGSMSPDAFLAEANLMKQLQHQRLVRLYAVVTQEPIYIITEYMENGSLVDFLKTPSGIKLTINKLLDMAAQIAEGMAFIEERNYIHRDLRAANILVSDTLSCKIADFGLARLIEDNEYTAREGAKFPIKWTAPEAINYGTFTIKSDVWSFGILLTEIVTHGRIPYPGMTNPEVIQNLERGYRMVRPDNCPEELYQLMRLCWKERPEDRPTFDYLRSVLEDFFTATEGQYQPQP
experimentNotes: KINOMEscan competition binding
assayConditions: compound 10.0 µM
quantityName: kinase still bound, per cent of control (%)

> print(dat)
                            substancesmiles  displayunit  measvalue
1  O=C(Nc1cccc(Nc2ncc(Br)c(NCCc3cnc[nH]3)n2)c1)N1CCCC1            %        3.4
2  COc1ccc(N(C(=O)Oc2c(C)cccc2C)c2ccnc(Nc3ccc(N4CCN(C)CC4)cc3)n2)c(OC)c1            %        0.1
3  Cc1n[nH]c2ccc(-c3cncc(OC[C@@H](N)Cc4c[nH]c5ccccc45)c3)cc12            %        100
4  COCC(=O)NC/C=C/c1ccc2ncnc(Nc3ccc(Oc4ccc(C)nc4)c(C)c3)c2c1            %         59
5  CCN(CC)CCCCNc1ncc2cc(-c3cc(OC)cc(OC)c3)c(NC(=O)NC(C)(C)C)nc2n1            %         22
6  CNC(=O)c1ccc(Nc2cc(Nc3ccccc3S(=O)(=O)C(C)C)c3cc[nH]c3n2)nc1            %        0.3
7  CCN(CC)CCCCNc1ncc2c(n1)N(C)C(=O)N(c1c(Cl)c(OC)cc(OC)c1Cl)C2            %          3
8  C=CC(=O)Nc1ccc(CN(C(=O)Nc2c(Cl)c(OC)cc(OC)c2Cl)c2cc(Nc3ccc(N4CCN(C)CC4)cc3)ncn2)cc1            %        0.2
9  O=C1NC(=O)/C(=C/c2ccc3nccc(-c4ccncc4)c3c2)S1            %         62
